Where these numbers come from: PubChem BioAssay (NCI)

Consider the following compounds; for each one, report its TGI.
System: LOX IMVI melanoma
protocol_details: NCI tumour cell line growth inhibition, 48 h

// solved cases for TGI follow
>>> print(df.to_string())
                                   compound  quantity_name  endpoint_result
0   COc1cc2oc(-c3ccc(O)cc3)cc(=O)c2c(OC)c1O            TGI         > 100 µM
1   NNC(=S)NN/C=C(\C=Nc1ccccc1)[N+](=O)[O-]            TGI         > 100 µM
2               CON(C(=O)OC(C)(C)C)c1ccccc1            TGI         > 100 µM
3  CCOC(=O)c1cc([N+](=O)[O-])cc([N+](=O)[O-])c1Sc1ncnc2nc[nH]c12            TGI          4.16 µM
4  CC1=C(C(=O)NCCCN(CCO)CCO)CC(C(=O)NCCCN(CCO)CCO)=C(C)N1            TGI         > 100 µM
5  CC(=O)OC12OC(C)(C3C(=O)N(c4ccccc4)C(=O)C31)N(c1ccccc1)C2=O (configuration not stated)            TGI         > 100 µM

Kindly review the next compound as well.
What value of TGI has been reported for the following compound? `CC/C(=C(/CC)c1ccc(O)cc1)c1ccc(O)cc1` 19.4 µM
